This section presents variants with their documented self-cleavage values.
B1: LINE1-full (parent)
chain: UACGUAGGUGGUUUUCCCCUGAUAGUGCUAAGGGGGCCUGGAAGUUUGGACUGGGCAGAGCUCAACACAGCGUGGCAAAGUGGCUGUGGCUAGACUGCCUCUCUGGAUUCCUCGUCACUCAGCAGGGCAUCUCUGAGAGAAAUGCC

Variants of: B1
Test: self-cleavage, relative activity (ratio to wild type); higher = more cleavage; in vitro, sequencing; the parent is a self-cleaving ribozyme
Measurement label: self-cleavage

changes="U13A U14C" measurement_label=self-cleavage quantitative_readout=0.46
changes="U73A C76U" measurement_label=self-cleavage quantitative_readout=2.51
changes="U14G U102G" measurement_label=self-cleavage quantitative_readout=0.66
changes="U13A G82U" measurement_label=self-cleavage quantitative_readout=0.65
changes="A6G C98U" measurement_label=self-cleavage quantitative_readout=0.42
changes="U52G G70A" measurement_label=self-cleavage quantitative_readout=0.42
changes="G105U A107C" measurement_label=self-cleavage quantitative_readout=2.34
changes="G8A U62C" measurement_label=self-cleavage quantitative_readout=0.05
changes="A43G A79U" measurement_label=self-cleavage quantitative_readout=1.8
changes="U104C U134C" measurement_label=self-cleavage quantitative_readout=1.62
changes="U52C A140G" measurement_label=self-cleavage quantitative_readout=1.1
changes="A64G A117U" measurement_label=self-cleavage quantitative_readout=0.26
changes="G80U U87A" measurement_label=self-cleavage quantitative_readout=0.08
changes="U39A A136G" measurement_label=self-cleavage quantitative_readout=1.49
changes="U73A C113A" measurement_label=self-cleavage quantitative_readout=0.23
changes="U20G A136G" measurement_label=self-cleavage quantitative_readout=1.03
changes="U52G A136G" measurement_label=self-cleavage quantitative_readout=0.88
changes="U87C A138U" measurement_label=self-cleavage quantitative_readout=0.24
changes="A121G C146U" measurement_label=self-cleavage quantitative_readout=1.39
changes="C95A U104C" measurement_label=self-cleavage quantitative_readout=0.08
changes="A69U A141G" measurement_label=self-cleavage quantitative_readout=0.07
changes="U1A A142G" measurement_label=self-cleavage quantitative_readout=1.19
changes="A31C U104A" measurement_label=self-cleavage quantitative_readout=2.67
changes="U1G U12C" measurement_label=self-cleavage quantitative_readout=0.64
changes="U13A A77G" measurement_label=self-cleavage quantitative_readout=0.46
changes="A42U A94U" measurement_label=self-cleavage quantitative_readout=0.15
changes="A117U U132G" measurement_label=self-cleavage quantitative_readout=1.99
changes="A50G G144A" measurement_label=self-cleavage quantitative_readout=1.46
changes="A31U U45G" measurement_label=self-cleavage quantitative_readout=1.5
changes="U26G U87A" measurement_label=self-cleavage quantitative_readout=0
changes="U9A U26C" measurement_label=self-cleavage quantitative_readout=1.24
changes="U15C A64G" measurement_label=self-cleavage quantitative_readout=0.36
changes="C17U U23C" measurement_label=self-cleavage quantitative_readout=0.68
changes="G82A G114U" measurement_label=self-cleavage quantitative_readout=2.07
changes="G40U U85G" measurement_label=self-cleavage quantitative_readout=0.28
changes="C56U G86A" measurement_label=self-cleavage quantitative_readout=0.04
changes="A22G A64U" measurement_label=self-cleavage quantitative_readout=0.41
changes="A78G A136G" measurement_label=self-cleavage quantitative_readout=1.45
changes="G82A A107G" measurement_label=self-cleavage quantitative_readout=1.73
changes="A117G U132C" measurement_label=self-cleavage quantitative_readout=1.8
changes="A43G G74A" measurement_label=self-cleavage quantitative_readout=1.17
changes="U14C C51U" measurement_label=self-cleavage quantitative_readout=0.71
changes="U62C C99A" measurement_label=self-cleavage quantitative_readout=0.03
changes="A69G C145U" measurement_label=self-cleavage quantitative_readout=0.55
changes="G32U U73A" measurement_label=self-cleavage quantitative_readout=0.89
changes="C19U G48A" measurement_label=self-cleavage quantitative_readout=0.72
changes="U23A C118U" measurement_label=self-cleavage quantitative_readout=1.22
changes="A24U A136G" measurement_label=self-cleavage quantitative_readout=1.64
changes="U87C C118U" measurement_label=self-cleavage quantitative_readout=0.22
changes="U85C A107G" measurement_label=self-cleavage quantitative_readout=0.15
changes="U81A A142G" measurement_label=self-cleavage quantitative_readout=2.07
changes="A67G U112A" measurement_label=self-cleavage quantitative_readout=0.53
changes="U39A A136U" measurement_label=self-cleavage quantitative_readout=1.52
changes="G54U A121G" measurement_label=self-cleavage quantitative_readout=0.97
changes="A30U U143A" measurement_label=self-cleavage quantitative_readout=0.77
changes="A57C U132A" measurement_label=self-cleavage quantitative_readout=0
changes="A64C U81C" measurement_label=self-cleavage quantitative_readout=0.38
changes="U47C A65C" measurement_label=self-cleavage quantitative_readout=0
changes="U52C C99A" measurement_label=self-cleavage quantitative_readout=0.27
changes="A50G U130A" measurement_label=self-cleavage quantitative_readout=0.83
changes="A2G A117U" measurement_label=self-cleavage quantitative_readout=1
changes="U29G U130C" measurement_label=self-cleavage quantitative_readout=0.63
changes="U26A A117G" measurement_label=self-cleavage quantitative_readout=1.11
changes="C76U U102C" measurement_label=self-cleavage quantitative_readout=0.59
changes="G93A A121U" measurement_label=self-cleavage quantitative_readout=0.06
changes="C90G A121U" measurement_label=self-cleavage quantitative_readout=0.02
changes="A79G C120G" measurement_label=self-cleavage quantitative_readout=1.08
changes="U12A U15C" measurement_label=self-cleavage quantitative_readout=0.92
changes="U45G A129U" measurement_label=self-cleavage quantitative_readout=0.67
changes="G7U U13A" measurement_label=self-cleavage quantitative_readout=0.71
changes="U13A C111U" measurement_label=self-cleavage quantitative_readout=0.89
changes="A43G C120U" measurement_label=self-cleavage quantitative_readout=1.52
changes="U102G G144U" measurement_label=self-cleavage quantitative_readout=0.97
changes="A121C U134A" measurement_label=self-cleavage quantitative_readout=0.84
changes="A92U A124G" measurement_label=self-cleavage quantitative_readout=0.5
changes="U108A U130A" measurement_label=self-cleavage quantitative_readout=0.38
changes="A67U C128U" measurement_label=self-cleavage quantitative_readout=0.1
changes="A6U U134A" measurement_label=self-cleavage quantitative_readout=1.28
changes="A6U A142C" measurement_label=self-cleavage quantitative_readout=0.28
changes="U9C A57G" measurement_label=self-cleavage quantitative_readout=0.96
changes="A64G U91C" measurement_label=self-cleavage quantitative_readout=0.07
changes="U9C C76G" measurement_label=self-cleavage quantitative_readout=2.04
changes="A69G U81G" measurement_label=self-cleavage quantitative_readout=0
changes="U85C U134A" measurement_label=self-cleavage quantitative_readout=0.14
changes="U39G A142G" measurement_label=self-cleavage quantitative_readout=0.77
changes="G88U G126A" measurement_label=self-cleavage quantitative_readout=0
changes="G34A C37U" measurement_label=self-cleavage quantitative_readout=1.1
changes="A42G A124U" measurement_label=self-cleavage quantitative_readout=1.35
changes="U39C U130C" measurement_label=self-cleavage quantitative_readout=2.49
changes="G72C U112C" measurement_label=self-cleavage quantitative_readout=0.98
changes="U1C G36A" measurement_label=self-cleavage quantitative_readout=1.06
